Entry source: patent US11560366B2

- target_entity: human DLK (Homo sapiens (Human), UniProt Q12852)
- Sequence (Q12852 whole entry): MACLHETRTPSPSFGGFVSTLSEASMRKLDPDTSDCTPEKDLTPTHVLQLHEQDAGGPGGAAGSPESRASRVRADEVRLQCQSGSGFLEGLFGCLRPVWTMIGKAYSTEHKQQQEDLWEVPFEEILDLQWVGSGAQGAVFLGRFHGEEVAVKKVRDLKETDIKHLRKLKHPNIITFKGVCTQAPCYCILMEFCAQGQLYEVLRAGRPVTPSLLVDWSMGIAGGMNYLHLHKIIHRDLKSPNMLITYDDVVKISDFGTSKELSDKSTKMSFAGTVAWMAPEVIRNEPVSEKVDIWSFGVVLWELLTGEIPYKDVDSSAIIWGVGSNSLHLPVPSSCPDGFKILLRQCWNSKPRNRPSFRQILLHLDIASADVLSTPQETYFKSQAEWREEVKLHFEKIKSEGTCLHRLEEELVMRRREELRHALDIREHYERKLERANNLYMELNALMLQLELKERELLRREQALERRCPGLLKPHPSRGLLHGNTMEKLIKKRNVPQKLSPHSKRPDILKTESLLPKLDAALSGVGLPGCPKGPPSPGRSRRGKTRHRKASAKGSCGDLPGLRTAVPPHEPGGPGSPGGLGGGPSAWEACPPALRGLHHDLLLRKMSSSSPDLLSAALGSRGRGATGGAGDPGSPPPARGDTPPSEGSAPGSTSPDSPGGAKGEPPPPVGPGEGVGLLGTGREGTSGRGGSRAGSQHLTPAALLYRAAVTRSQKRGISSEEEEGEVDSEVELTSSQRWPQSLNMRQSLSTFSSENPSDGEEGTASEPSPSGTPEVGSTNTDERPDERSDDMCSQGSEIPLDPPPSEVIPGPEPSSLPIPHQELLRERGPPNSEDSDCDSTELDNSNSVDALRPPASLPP
- test_summary: DLK Kd determination (KINOMEscan KdELECT, DiscoveRx)
- Format: binding
- assay_context: read-out: Kd
pKd: −log10 of the molar value.
Rule: yes (1) for pKd not less than 9, no (0) for anything less.

1. Nc1ncc(-c2cn(C34CC(F)(C3)C4)c([C@@H](O)C(F)(F)F)n2)cc1C(F)(F)F [Example 2a]    no (0)
2. Nc1ncc(-c2cn(C34CC(N5CCC(F)(F)CC5)(C3)C4)c(C(O)C3CC3)n2)cc1C(F)(F)F (stereo not shown) [Example 12]    no (0)
3. CC(C)[C@@H](O)c1nc(-c2cnc(N)c(C(F)(F)F)c2)cn1C12CC(N3CCC(F)(F)CC3)(C1)C2 (single isomer, unassigned) [Example 7a]    yes (1)
4. CC(C)[C@H](O)c1nc(-c2cnc(N)c(C(F)(F)F)c2)cn1C12CC(F)(C1)C2 (single isomer, unassigned) [Example 4b]    yes (1)
5. Nc1ncc(-c2cn(C34CC(F)(C3)C4)c(C(O)C3CC3)n2)cc1C(F)(F)F (stereo not shown) [Example 6]    no (0)
6. Nc1ncc(-c2cn(C34CC(N5CCC(F)(F)CC5)(C3)C4)c(C(O)C3CC3)n2)cc1OC(F)(F)F (stereo not shown) [Example 11]    no (0)

* * *

- test_summary: Mouse pharmacokinetics, single dose
- Type: in vivo, male C57BL/6 mice
- assay_context: mouse, plasma; male C57BL/6 mice, oral dose 10 mg/kg
endpoint_name: bioavailability (%)

1) CC(C)[C@H](O)c1nc(-c2cnc(N)c(C(F)(F)F)c2)cn1C12CC(C1)C2 [Compound 14b, reference compound]    61.2
2) CC(C)[C@H](O)c1nc(-c2cnc(N)c(C(F)(F)F)c2)cn1C12CC(F)(C1)C2 (single isomer, unassigned) [Example 4b]    49.2
3) Nc1ncc(-c2cn(C34CC(N5CCC(F)(F)CC5)(C3)C4)c([C@H](O)C(F)(F)F)n2)cc1OC(F)(F)F (single isomer, unassigned) [Example 9b]    70.5
4) Nc1ncc(-c2cn(C34CC(N5CCOCC5)(C3)C4)c([C@@H](O)C(F)(F)F)n2)cc1OC(F)(F)F [Compound 16, reference compound]    92.1
5) Nc1ncc(-c2cn(C34CC(F)(C3)C4)c([C@@H](O)C(F)(F)F)n2)cc1OC(F)(F)F (single isomer, unassigned) [Example 1a]    154
6) CC(C)[C@@H](O)c1nc(-c2cnc(N)c(OC(F)(F)F)c2)cn1C12CC(N3CCC(F)(F)CC3)(C1)C2 (single isomer, unassigned) [Example 8a]    106
7) Nc1ncc(-c2cn(C34CC(C3)C4)c([C@@H](O)C(F)(F)F)n2)cc1OC(F)(F)F [Compound 13, reference compound]    51

* * *

- test_summary: Mouse pharmacokinetics, single dose
- Type: in vivo, male C57BL/6 mice
- assay_context: mouse, plasma; male C57BL/6 mice, oral dose 10 mg/kg
endpoint_name: Cmax

1) Nc1ncc(-c2cn(C34CC(F)(C3)C4)c([C@@H](O)C(F)(F)F)n2)cc1OC(F)(F)F (single isomer, unassigned)    6.36 µM
2) CC(C)[C@H](O)c1nc(-c2cnc(N)c(C(F)(F)F)c2)cn1C12CC(F)(C1)C2 (single isomer, unassigned)    5.42 µM
3) Nc1ncc(-c2cn(C34CC(C3)C4)c([C@@H](O)C(F)(F)F)n2)cc1OC(F)(F)F [Compound 13, reference compound]    1.95 µM
